Reported inhibition at 1000 µM values for the following molecules.
- systemUnderTest: PfCRT^Dd2 (Plasmodium falciparum, UniProt Q9N623, A220S/I356T/K76T/M74I/N326S/N75E/Q271E/R371I)
- Sequence (Q9N623 whole entry A220S/I356T/K76T/M74I/N326S/N75E/Q271E/R371I): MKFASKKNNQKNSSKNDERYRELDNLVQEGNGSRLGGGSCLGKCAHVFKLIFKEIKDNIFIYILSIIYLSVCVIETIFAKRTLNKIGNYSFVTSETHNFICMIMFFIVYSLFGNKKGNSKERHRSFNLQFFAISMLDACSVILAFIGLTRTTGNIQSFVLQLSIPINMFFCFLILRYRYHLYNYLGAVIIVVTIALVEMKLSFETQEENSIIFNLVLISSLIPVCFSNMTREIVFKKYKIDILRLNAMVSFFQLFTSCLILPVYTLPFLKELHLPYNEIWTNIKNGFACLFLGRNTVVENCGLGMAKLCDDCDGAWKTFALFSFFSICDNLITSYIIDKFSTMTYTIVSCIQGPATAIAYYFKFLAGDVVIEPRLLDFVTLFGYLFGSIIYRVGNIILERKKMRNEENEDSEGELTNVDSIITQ
- protocolNotes: [3H]CQ uptake into Xenopus oocytes, cis-inhibition by unlabelled solute
- Type: cell-based
- conditionDescription: read-out: Uptake of [3H]CQ (% PfCRTDd2 control), cis-inhibition, PfCRTDd2; SEM

[
  {
    "molecule": "N[C@@H](CO)C(=O)O [L-serine]",
    "inhibition at 1000 µM": "98%"
  },
  {
    "molecule": "O=C(O)[C@@H]1CCCN1 [L-proline]",
    "inhibition at 1000 µM": "98%"
  },
  {
    "molecule": "N[C@@H](Cc1c[nH]cn1)C(=O)O [L-histidine]",
    "inhibition at 1000 µM": "99%"
  },
  {
    "molecule": "CC(C)[C@H](N)C(=O)O [L-valine]",
    "inhibition at 1000 µM": "100%"
  },
  {
    "molecule": "CSCC[C@H](N)C(=O)O [L-methionine]",
    "inhibition at 1000 µM": "100%"
  },
  {
    "molecule": "CC(C)C[C@H](N)C(=O)O [L-leucine]",
    "inhibition at 1000 µM": "98%"
  },
  {
    "molecule": "N[C@@H](CCC(=O)O)C(=O)O [L-glutamic acid]",
    "inhibition at 1000 µM": "96%"
  },
  {
    "molecule": "CC[C@H](C)[C@H](N)C(=O)O [L-isoleucine]",
    "inhibition at 1000 µM": "100%"
  },
  {
    "molecule": "C[C@H](N)C(=O)O [L-alanine]",
    "inhibition at 1000 µM": "96%"
  },
  {
    "molecule": "N[C@@H](Cc1ccc(O)cc1)C(=O)O [L-tyrosine]",
    "inhibition at 1000 µM": "98%"
  },
  {
    "molecule": "C[C@@H](O)[C@H](N)C(=O)O [L-threonine]",
    "inhibition at 1000 µM": "96%"
  },
  {
    "molecule": "NC(=O)CC[C@H](N)C(=O)O [L-glutamine]",
    "inhibition at 1000 µM": "100%"
  },
  {
    "molecule": "NCCCC[C@H](N)C(=O)O [L-lysine]",
    "inhibition at 1000 µM": "100%"
  },
  {
    "molecule": "N[C@@H](Cc1c[nH]c2ccccc12)C(=O)O [L-tryptophan]",
    "inhibition at 1000 µM": "97%"
  },
  {
    "molecule": "N[C@@H](CS)C(=O)O [L-cysteine]",
    "inhibition at 1000 µM": "96%"
  },
  {
    "molecule": "N[C@@H](Cc1ccccc1)C(=O)O [L-phenylalanine]",
    "inhibition at 1000 µM": "97%"
  },
  {
    "molecule": "N=C(N)NCCC[C@H](N)C(=O)O [L-arginine]",
    "inhibition at 1000 µM": "101%"
  }
]
